Test system: corn (Zea mays)
test_description: Test C greenhouse herbicide test, pre- and postemergence
Assay type: in vivo
measurement_parameters: Postemergence, 31 g ai/ha; 0 to 100 scale (0 no effect, 100 complete control)
For each entry below, report its Corn plant response rating value.
Give bare numbers.

# count of solved cases: 5
COc1nn(C)c(=O)c(-c2c(C)ccc3ccccc23)c1O [Compound 54] | 0
Cc1nn(C)c(=O)c(-c2c(C)sc3ccccc23)c1O [Compound 65] | 5
CC(=O)Oc1c(C)nn(C)c(=O)c1-c1c(C)oc2ccc(C)cc12 [Compound 14] | 0
CC(=O)Oc1c(C)nn(C)c(=O)c1-c1c(C)sc2ccc(C)cc12 [Compound 25] | 5
COc1nn(C)c(=O)c(-c2c(C)sc3ccc(Cl)cc23)c1O [Compound 100] | 5

Batch of 2 compounds: report Corn plant response rating for each.
1. CCOC(=O)Oc1c(C)nn(C)c(=O)c1-c1c(C)sc2ccc(C)cc12 [Compound 82]
2. Cc1cc(C)c2sc(C)c(-c3c(OC(=O)OCCCl)c(C)nn(C)c3=O)c2c1 [Compound 85]

**A:**
1: 35; 2: 0
